- System: HL-60(TB) leukemia
- ASSAY METHOD TEXT: NCI-60 one-dose screen, 48 h (100 = growth as untreated, 0 = no growth, -100 = all killed)
- COND: 10 µM unless noted
About 83,000 compounds went through this panel and 20% of them were active in at least one assay; those are over-represented in the sample as a whole.
PARAMETER: growth (%)

> print(dat)
                                    compound  parameter  recorded.result
 1  CS(=O)(=O)N(c1cc(-c2ccc3ncnc(Nc4cccc(Cl)c4)c3c2)cnc1Cl)S(C)(=O)=O     growth             8.46
 2  CN1CCN(c2ccc(Nc3c4ccccc4nc4ccccc34)cc2)CC1     growth              119
 3                      O=CNc1cc(Cl)cc(Cl)c1     growth             93.2
 4  C=C1C(=O)O[C@H]2[C@H]1CC/C(COC(=O)NCC(=O)Nc1ccc(OC)c(C(N)=O)c1O)=C\CC[C@@]1(C)O[C@@H]21     growth            -7.13
 5  O=C(NNC(=S)Nc1ccccc1)c1ccc(Nc2ncnc3c2cnn3-c2cccc(Br)c2)cc1     growth              111
 6  CC1(C)N=C(N)N=C(N)N1c1ccc(S(=O)(=O)Nc2nccs2)cc1     growth              101
 7            CCCCCCc1nc2nc(Cl)c(Cl)nc2[nH]1     growth             39.6
 8  COc1ccc(-c2nc3c(ncc4ccc(=O)[nH]c43)s2)cc1     growth             80.1
 9         CN(C)c1ccc(-c2nc3ncc(Br)cc3o2)cc1     growth             85.8
10  N=C(N)c1ccc(-c2ccc(-c3cc(Cl)cc(Cl)c3)o2)nc1     growth            -74.7
11  CCOc1nc(-c2ccccc2)cc2c(O)c(C(=O)NC(C)C)[nH]c(=O)c12     growth              168
12  Cc1[nH]c(C(=O)Nc2ccc(C(=O)NCCN)cc2OC(C)C)c(Cl)c1Cl     growth            -21.3
13  O=C1c2cccc3cc([N+](=O)[O-])cc(c23)C(=O)N1CCN1CCCC1     growth            -54.1
14            O=C(O)c1ccccc1C(=O)c1ccc(I)cc1     growth             93.1
15  CC1(C)C2CCC1(C)C1(C2)OCCS1 (stereo unspecified)     growth             91.3
16  CCN1CCN(CC(=O)Nc2nc3ccc(NCc4ccc(Br)cc4)cc3s2)CC1     growth             20.1
17  CCN(CC)c1ccc(/C=N/NC(=O)c2ccc(S(C)(=O)=O)cc2)c(O)c1     growth            -18.5
18  O=C1c2c(c3c4ccccc4[nH]c3c3ccc4ccccc4c23)C(=O)N1CCN1CCNCC1     growth             43.6
19  O=C(CCl)NNc1nccc(Nc2ccc(S(=O)(=O)Nc3ccncc3)cc2)n1     growth             36.5
20  CC(=O)OC[C@]12CCC(C)(C)C=C1[C@H]1CC[C@@H]3[C@@]4(C)CCCNC(C)(C)[C@@H]4CC[C@@]3(C)[C@]1(C)CC2     growth            0.652
21  COc1ccc(-c2cc(-c3ccc(Cl)cc3)nc(SCCCC(=O)NO)n2)cc1OC     growth            -32.4
